Provenance of the data: patent US20260092061A1

Target: BRD9 (Homo sapiens, UniProt Q9H8M2)
Sequence (Q9H8M2 whole entry): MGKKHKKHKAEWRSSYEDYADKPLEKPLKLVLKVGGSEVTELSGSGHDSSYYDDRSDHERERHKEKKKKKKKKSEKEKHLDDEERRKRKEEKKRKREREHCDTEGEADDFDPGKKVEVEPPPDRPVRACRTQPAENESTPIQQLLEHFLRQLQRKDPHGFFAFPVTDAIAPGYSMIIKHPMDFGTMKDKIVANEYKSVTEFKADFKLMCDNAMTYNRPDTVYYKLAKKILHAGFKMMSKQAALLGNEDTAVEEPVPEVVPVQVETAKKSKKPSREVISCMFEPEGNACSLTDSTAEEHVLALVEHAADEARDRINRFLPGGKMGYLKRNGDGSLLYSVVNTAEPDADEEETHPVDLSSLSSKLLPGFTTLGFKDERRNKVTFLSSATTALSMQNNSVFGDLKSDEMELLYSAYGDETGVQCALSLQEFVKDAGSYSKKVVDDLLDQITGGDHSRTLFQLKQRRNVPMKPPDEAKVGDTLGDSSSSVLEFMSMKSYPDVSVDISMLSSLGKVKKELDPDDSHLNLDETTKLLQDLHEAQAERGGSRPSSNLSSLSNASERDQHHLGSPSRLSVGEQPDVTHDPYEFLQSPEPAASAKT
Experiment: Degradation of BRD9 (IF), immunofluorescence in MV4-11 cells, 24 hours (Assay Protocol 2)
Assay type: cell-based
Parameters: A suspension of MV4-11 cells (ATCC CRL-9591) was prepared; host or cells: MV4-11
Conditions: Assay protocol 2; BRD9 degradation; read-out: DC50
Measured quantity: DC50

## Input Short answer please: DC50, BRD9 (Homo sapiens, UniProt Q9H8M2), entry COc1cc(-c2cn(C)c(=O)c(C)c2C)cc(OC)c1C(=O)N1CCC(Oc2cccc(C3CCCN3C(=O)/C(C#N)=C/C(C)(C)C)c2)CC1 (mixture of isomers) [Compound B79]
## Output < 1.25 nM

## Input Short answer please: DC50, BRD9 (Homo sapiens, UniProt Q9H8M2), entry COc1cc(-c2cn(C)c(=O)c(C)c2C)cc(OC)c1CN1CCN(Cc2cccc3c2CCN(C(=O)/C(C#N)=C/C2CCOCC2)C3C)CC1 (mixture of isomers) [Compound B69]
## Output 1.25 to 10 nM

## Input Short answer please: DC50, BRD9 (Homo sapiens, UniProt Q9H8M2), entry COc1cc(-c2cn(C)c(=O)c(C)c2C)cc(OC)c1CN1CC[C@H](Oc2cccc3c2CCN(C(=O)/C(C#N)=C/C(C)(C)C)C3C)C1 (mixture of isomers) [Compound B133]
## Output 10 to 25 nM

## Input Short answer please: DC50, BRD9 (Homo sapiens, UniProt Q9H8M2), entry COc1cc(-c2cn(C)c(=O)c(C)c2C)cc(OC)c1CN1CCN(Cc2cccc3c2CCN(C(=O)/C(C#N)=C/C2CCOC2)C3C)C2(CC2)C1 (mixture of isomers) [Compound B173]
## Output < 1.25 nM

## Input Short answer please: DC50, BRD9 (Homo sapiens, UniProt Q9H8M2), entry COc1cc(-c2cn(C)c(=O)c(C)c2C)cc(OC)c1CN1CCN(Cc2cccc3c2CCN(C(=O)/C(C#N)=C/C(C)(C)C)C3C)CC1=O (mixture of isomers) [Compound B142]
## Output 1.25 to 10 nM

## Input Short answer please: DC50, BRD9 (Homo sapiens, UniProt Q9H8M2), entry COc1cc(-c2cn(C)c(=O)c(C)c2C)cc(OC)c1CN1CCC2(CC1)CCN(c1cccc3c1CCN(C(=O)/C(C#N)=C/C(C)(C)C)[C@@H]3C)C2 [Compound C47]
## Output 1.25 to 10 nM

## Input Short answer please: DC50, BRD9 (Homo sapiens, UniProt Q9H8M2), entry COc1cc(-c2cn(C)c(=O)c(C)c2C)cc(OC)c1CN1CCN(Cc2cccc3c2CCN(C(=O)/C(C#N)=C/c2cccc(C)n2)C3C)CC1 (mixture of isomers) [Compound B24]
## Output 1.25 to 10 nM

## Input Short answer please: DC50, BRD9 (Homo sapiens, UniProt Q9H8M2), entry CC[C@@H]1c2cccc(CN3CCN(Cc4c(OC)cc(-c5cn(C)c(=O)c(C)c5C)cc4OC)C4(CC4)C3)c2CCN1C(=O)/C(C#N)=C/C(C)(C)CF (single isomer, unassigned) [Compound C105]
## Output < 1.25 nM

## Input Short answer please: DC50, BRD9 (Homo sapiens, UniProt Q9H8M2), entry CCCC(c1cccc(CCC(=O)N2CCN(Cc3c(OC)cc(-c4cn(C)c(=O)c(C)c4C)cc3OC)CC2)c1)N(C)C(=O)/C(C#N)=C/c1nccs1 (mixture of isomers) [Compound B185]
## Output 1.25 to 10 nM

## Input Short answer please: DC50, BRD9 (Homo sapiens, UniProt Q9H8M2), entry COc1cc(-c2cn(C)c(=O)c(C)c2C)cc(OC)c1CN1CCC(N(C)c2ccc3c(c2)[C@@H](C)N(C(=O)/C(C#N)=C/C(C)(C)C)CC3)CC1 (single isomer, unassigned) [Compound C65]
## Output 1.25 to 10 nM
